TARGET ENTITY: hS1P2 (ProLink-tagged, PathHunter) (Homo sapiens, UniProt O95136)
Construct: gene S1PR2; PathHunter HEK293 cells, ProLink-tagged; N-terminal HA tag in the internalization assay
PROTOCOL DESCRIPTION: PathHunter beta-arrestin recruitment
Format: cell-based
MEASUREMENT CONDITIONS: read-out: EC50
VALUE KIND: EC50

Look up EC50 for this compound: O=C(O)C[C@H]1CCc2c1[nH]c1ccc(OCc3ccc(C4CCCC4)c(C(F)(F)F)c3)cc21
> 10 µM

###

TARGET ENTITY: hS1P4 (ProLink-tagged, PathHunter) (Homo sapiens)
Construct: ProLink-tagged receptor, PathHunter HEK293 cells
Sequence (O95977 whole entry): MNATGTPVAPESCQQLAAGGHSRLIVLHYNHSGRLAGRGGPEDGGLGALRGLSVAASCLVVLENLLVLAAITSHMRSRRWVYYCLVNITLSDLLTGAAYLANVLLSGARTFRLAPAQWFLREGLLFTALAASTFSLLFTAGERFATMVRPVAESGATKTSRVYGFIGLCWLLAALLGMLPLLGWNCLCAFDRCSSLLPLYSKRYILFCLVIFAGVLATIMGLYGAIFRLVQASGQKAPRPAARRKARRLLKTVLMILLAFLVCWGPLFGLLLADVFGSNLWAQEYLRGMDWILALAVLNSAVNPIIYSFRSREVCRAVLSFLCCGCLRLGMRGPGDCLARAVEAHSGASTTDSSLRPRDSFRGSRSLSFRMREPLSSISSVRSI
PROTOCOL DESCRIPTION: PathHunter beta-arrestin recruitment
Recorded EC50 values for a group of compounds are listed next.

RECORD SMILES	EC50
CCc1cc(/C(C)=N/OCc2ccc(C3CCCCC3)c(C(F)(F)F)c2)ccc1CN1CC(C(=O)O)C1	> 0.5 µM
CC(C)Oc1ccc(-c2nc(-c3cccc4c3CC[C@@H]4NCCO)no2)cc1C#N	> 0.5 µM

Attention now shifts to the item below.
Look up EC50 for this compound: CC(C)Oc1ccc(-c2nc(-c3cccc4c3CCC4=O)no2)cc1C#N
> 0.5 µM

###

Recorded EC50 values for a group of compounds are listed next.
TARGET ENTITY: hS1P4 (Homo sapiens, UniProt O95977)
Construct: receptor stably expressed in CHO-K1 cells
Sequence (O95977 whole entry): as above
PROTOCOL DESCRIPTION: […]GTPgammaS binding, CHO-K1 membranes

Reference set (2 entries):
COMPOUND	EC50
O=C(O)C[C@H]1CCc2c1[nH]c1ccc(OCc3ccc(C4CCCC4)c(C(F)(F)F)c3)cc21 [Etrasimod]	> 10 µM
CC(C)Oc1ccc(-c2nc(-c3cccc4c3CC[C@@H]4NCCO)no2)cc1C#N [Ozanimod]	> 10 µM

Attention now shifts to the item below.
Provide the documented EC50 with hS1P4 (Homo sapiens, UniProt O95977) as the system for CC(C)Oc1ccc(-c2nc(-c3cccc4c3CCC4=O)no2)cc1C#N [Ozanimod(K)]
> 10 µM
